# Subject of test: BDKRB1 (Homo sapiens)
# Construct: purchased Promega (in-house HiBiT-GPCR construct library, NanoBRET)
# Sequence (P46663 1-353): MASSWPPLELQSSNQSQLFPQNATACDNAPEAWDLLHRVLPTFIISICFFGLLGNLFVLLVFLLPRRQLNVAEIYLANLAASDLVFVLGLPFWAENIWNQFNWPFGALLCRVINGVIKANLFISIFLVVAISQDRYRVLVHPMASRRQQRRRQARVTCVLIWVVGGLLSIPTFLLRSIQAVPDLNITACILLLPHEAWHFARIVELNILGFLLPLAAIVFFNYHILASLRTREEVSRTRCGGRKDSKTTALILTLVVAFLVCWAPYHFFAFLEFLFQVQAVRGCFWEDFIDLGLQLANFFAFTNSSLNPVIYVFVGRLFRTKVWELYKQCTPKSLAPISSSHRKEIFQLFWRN
# Method summary: NanoBRET screen HiBiT-BDKRB1 in HEK293
# Assay type: binding
# Measurement conditions: BDKRB1; tracer 1μM
Answer each item with its documented NanoBRET Fold Response.
Give bare numbers.

Known results for molecules:
[
  {
    "Molecule": "Cc1cc2c(s1)Nc1ccccc1N=C2N1CCN(CCCNC(=O)CCOCCOCCOCCOCCNC(=O)CCc2ccc3n2[B-](F)(F)[N+]2=C(c4ccc[nH]4)C=CC2=C3)CC1 [Olanzapine-a-2-NB590]",
    "Subject of test": "BDKRB1 (Homo sapiens)",
    "Numeric result": 1.10
  },
  {
    "Molecule": "CCCn1c(=O)c2[nH]c(-c3ccc(OCC(=O)NCCNC(=O)CCOCCNC(=O)c4ccc(CNC(=O)CCc5ccc6n5[B-](F)(F)[N+]5=C(c7ccc[nH]7)C=CC5=C6)cc4)cc3)nc2n(CCC)c1=O [XAC-3-NB590]",
    "Subject of test": "BDKRB1 (Homo sapiens)",
    "Numeric result": 0.94
  },
  {
    "Molecule": "COc1ccccc1N1CCN(CCCCN2C(=O)c3ccc(CNC(=O)CCOCCOCCOCCOCCNC(=O)CCc4ccc5n4[B-](F)(F)[N+]4=C(c6ccc[nH]6)C=CC4=C5)cc3C2=O)CC1 [NAN-190-2-NB590]",
    "Subject of test": "BDKRB1 (Homo sapiens)",
    "Numeric result": 1.06
  },
  {
    "Molecule": "O=C(CCc1ccc2n1[B-](F)(F)[N+]1=C(c3ccc[nH]3)C=CC1=C2)NCc1ccc(C(=O)NCCOCCC(=O)N[C@@H]2CC[C@@]3(O)[C@H]4Cc5ccc(O)c6c5[C@@]3(CCN4CC3CC3)[C@H]2O6)cc1 [Naltrexone-3-NB590]",
    "Subject of test": "BDKRB1 (Homo sapiens)",
    "Numeric result": 1.03
  },
  {
    "Molecule": "Cc1nc2n(c(=O)c1CCN1CCC(c3noc4cc(F)ccc34)CC1)CCCC2OC(=O)NCCOCCOCCOCCOCCNC(=O)CCc1ccc2n1[B-](F)(F)[N+]1=C(c3ccc[nH]3)C=CC1=C2 (stereo not drawn) [Risperidone-2-NB590]",
    "Subject of test": "BDKRB1 (Homo sapiens)",
    "Numeric result": 0.77
  }
]

Ask: Endpoint output: NanoBRET Fold Response of N#CN=C(NCCCOc1cccc(CN2CCCCC2)c1)NCCNC(=O)CCOCCOCCOCCOCCNC(=O)CCc1ccc2n1[B-](F)(F)[N+]1=C(c3ccc[nH]3)C=CC1=C2 [Aminopotentidine-2-NB590] . Value?
Reply: 1.02
